subject_of_test: T1, human MerTK (human, UniProt Q12866 26-499)
T1 construct: also called HuMER
T1 sequence: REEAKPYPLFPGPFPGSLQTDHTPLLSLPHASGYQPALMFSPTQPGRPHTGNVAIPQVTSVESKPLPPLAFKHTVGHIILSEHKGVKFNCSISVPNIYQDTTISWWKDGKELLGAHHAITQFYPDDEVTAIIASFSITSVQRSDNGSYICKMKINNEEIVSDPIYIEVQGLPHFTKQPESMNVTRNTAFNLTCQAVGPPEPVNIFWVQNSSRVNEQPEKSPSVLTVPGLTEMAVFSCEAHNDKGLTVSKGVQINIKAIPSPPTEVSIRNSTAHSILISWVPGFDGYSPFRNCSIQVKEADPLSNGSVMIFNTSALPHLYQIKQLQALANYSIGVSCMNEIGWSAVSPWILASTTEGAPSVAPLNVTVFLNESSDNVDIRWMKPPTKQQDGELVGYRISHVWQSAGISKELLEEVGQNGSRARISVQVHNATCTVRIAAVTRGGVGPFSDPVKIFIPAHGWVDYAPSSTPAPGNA
method_notes: SPR BIAcore T200, Ab captured, 37C
readout_type: Kd (nM)
Answers are plain numbers, in nM.

Batch: Kd for all items listed.
1. h13B4.v1 (antibody, V domains shown, also called h13B4.V1 (Parent); 13B4 Humanized mAb V1) VH: EQQLVESGEGLVQPGGSLRLSCAVSGFSLSSYAMGWVRQAPGKGLEWIGIINSYGNTYYANWAKGRFTISRDSSKNTVYLQMGSLRAEDMAVYFCARDPGVSSNLWGPGTLVTVSS VL: DVQMTQSPSTLSASVGDRVTITCQASQNIYSGLAWYQQKPGKPPKLLIYGASKLASGVPSRFSGSGSGTEFTLTISSLQPDDFATYYCQATYYSSNSVAFGGGTKVEIK
2. h9E3.FN.V1 HC F91Y (antibody, name in Kabat numbering, V domains shown, Framework variant of h9E3.FN.v1 (human IgG1)) VH: EQQLVESGGGLIQPGGSLRLSCAVSGFSLSSNAMSWVRQAPGKGLEWIGIISSSGSTYSASWAKGRFTISKDSSKNTMYLQMNSLRAEDTAVYYCARVGFFVGYGAYDYGIIHRLDLWGQGTLVTVSS VL: DAQLTQSPSTLSASVGDRVTITCQSSKSIYNNNWLSWYQQKPGKPPKLLIYDASDLASGVPSRFSGSGSGTEFTLTISSLQPDDFATYYCAGGYSGDSDYAFGGGTKVEIK
3. h13B4.V1 LC P43A (antibody, human IgG1, name in Kabat numbering, V domains shown, Framework variant of h13B4.v1 (human IgG1)) VH: EQQLVESGEGLVQPGGSLRLSCAVSGFSLSSYAMGWVRQAPGKGLEWIGIINSYGNTYYANWAKGRFTISRDSSKNTVYLQMGSLRAEDMAVYFCARDPGVSSNLWGPGTLVTVSS VL: DVQMTQSPSTLSASVGDRVTITCQASQNIYSGLAWYQQKPGKAPKLLIYGASKLASGVPSRFSGSGSGTEFTLTISSLQPDDFATYYCQATYYSSNSVAFGGGTKVEIK
4. h9E3.FN.V1 HC Q2V (antibody, human IgG1, name in Kabat numbering, V domains shown, Framework variant of h9E3.FN.v1 (human IgG1)) VH: EVQLVESGGGLIQPGGSLRLSCAVSGFSLSSNAMSWVRQAPGKGLEWIGIISSSGSTYSASWAKGRFTISKDSSKNTMYLQMNSLRAEDTAVYFCARVGFFVGYGAYDYGIIHRLDLWGQGTLVTVSS VL: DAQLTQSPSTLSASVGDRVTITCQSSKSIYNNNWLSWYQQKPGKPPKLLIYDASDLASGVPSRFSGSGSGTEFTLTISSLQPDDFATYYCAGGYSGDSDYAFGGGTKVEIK
5. h10F7.V1 HC V24A (antibody, human IgG1, name in Kabat numbering, V domains shown, Framework variant of h10F7.v1 (human IgG1)) VH: EQQLVESGGGLVQPGGSLRLSCAASGFSLSGYAMSWVRQAPGKGLEYIGVISSSGSSYYPSWAKGRFTISKDSSKNTVYLQMGSLRAEDMAVYFCARVQFYVGYAVYGYGIIDRLDLWGQGTLVTVSS VL: DAVLTQSPDSLAVSLGERATINCQSSKSVYNNNWLSWYQQKPGQPPKLLIYRASTLESGVPDRFSGSGSGTDFTLTISSLQAEDVAVYFCAGGYSSSSSANAFGGGTKVEIK

1: 4.8; 2: 11.5; 3: 4.6; 4: 10.2; 5: 9.4
